assay_procedure: SK-BR-3 cell growth inhibitors, pilot screen, 24 h, human (AID 572);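 also: compound exposure lasted between 18 and 24 h rather than exactly 24 h; 100% = carrier-treated control wells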
condition_summary: SK-BR-3 viability, CellTiter-Glo luminescence, at 10 µM, hits give low values
Hi there, I'd appreciate the recorded viability for every entry that follows.
Number in %, nothing else.

Q) Which viability reading was recorded for the compound COc1cc2c(cc1OC)-c1cc(OCc3cccnc3)nc(=O)n1CC2 ?
A) 92

Q) How about this compound: O=C(NCCc1ccccn1)c1ccc(COc2ccccc2)o1
A) 80

Q) Same question, CCCCn1nnnc1SCC(=O)Nc1cccc(C)n1 this time
A) 108

Q) O=C(Cc1ccccc1)N1CCCC(c2nc(-c3cccs3)no2)C1 (centres undefined) , same question.
A) 91.5

Q) Next up: Cc1ccccc1CN1CCNC1=O
A) 114

Q) Same lookup for CCSc1nc2ccccc2n1CC(N)=O , please.
A) 102

Q) Another compound to look at: COCCNC(=O)c1c(N)n(CCC2=CCCCC2)c2nc3ccccc3nc12
A) 102

Q) Moving on to the next compound: COc1ccc(CC(=O)OCC(=O)NC(=O)NC2CCCCC2)cc1
A) 96.5

Q) Cn1nnnc1SCC(=O)NCc1ccco1 , same question.
A) 95

Q) Repeat with O=C1CS/C(=N\C(=O)N2c3ccccc3Sc3ccccc32)N1
A) 102

Q) Moving on to the next compound: CC1CCN(C(=O)C2CCN(S(=O)(=O)c3cnc[nH]3)CC2)CC1
A) 98

Q) Try this compound next: O=C(c1cnn2c(C(F)F)cc(C3CC3)nc12)N1CCOCC1
A) 104

Q) Cool, now CC(C)COC(=O)C1[C@H]2C(=O)N(Cc3cccs3)C[C@]23C=C[C@H]1O3 (some centres undefined)
A) 102

Q) // query: CCN1C(=O)OC2(CCCCC2)C1(C)O (centres undefined)
A) 107

Q) For Cc1nc(-c2cnn(-c3ccccc3)c2)c2cc(C)oc2n1 then?
A) 74.5

Q) One more compound: COC(=O)CSc1nc2ncc(Cl)cc2[nH]1
A) 101

Q) Let us now turn to Cc1ccc(NC2c3ncccc3C(=O)N2C2CCCCC2)cc1C (centres undefined)
A) 98.5

Q) What about this compound? COc1ccccc1OCCOc1ccccc1/C=N/n1cnnc1
A) 81.5

Q) Entry COc1ccc(CC(NC(C)=O)C(=O)NC2CCN(C(=O)Nc3ccc(C#N)cc3)CC2)cc1OC (centres undefined) please
A) 93

Q) Then O=C(C1CCCCC1)N1CCC(c2nc3c(nnn3Cc3c(F)cccc3Cl)c(=O)[nH]2)CC1 ?
A) 87.5

Q) Same question for CN1CCCN(C(=O)c2cc(=O)[nH]c3ccccc23)c2nc3ccccc3nc21 please.
A) 114

Q) Request: Cc1ccc(NC(=O)Nc2ccc3c(c2)N(C)C(=O)CS3)nc1
A) 108

Q) # iterate: O=C1C(c2ccncc2)=C(O)c2ccccc21
A) 100

Q) Same read-out for O=c1cc(NCc2ccccc2)nc2n1CCCS2 ?
A) 103

---

assay_procedure: SK-BR-3 cell growth inhibitors, pilot screen, 24 h, human (AID 572);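 also: compound exposure lasted between 18 and 24 h rather than exactly 24 h; 100% = carrier-treated control wells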
condition_summary: SK-BR-3 viability, CellTiter-Glo luminescence, at 10 µM, hits give low values
test_readout: viability (%)
Write the number in % without appending the unit.

Q) Given the compound COc1ccc(-n2c(SCC(=O)Nc3ccc(C(=O)O)cc3)nnc2-c2cccs2)cc1 , what is its reported viability?
A) 112

Q) Also need O=C(c1ccc(COc2c(F)c(F)c(F)c(F)c2F)o1)N1CCOCC1 , thanks.
A) 111

Q) Moving on to the next compound: O=C(CSc1nnc2ncccn12)N1CCCCCC1
A) 102

Q) And the next one, CCOC(=O)c1cccc(NC(=O)CSc2nnc(-c3ccoc3C)n2CCOC)c1 ?
A) 102

Q) Now the same for O=S(=O)(NCCc1csc(-c2ccccc2)n1)c1ccc2c(c1)OCCO2
A) 103

Q) Could you do the same for CN1C(=O)CSc2ccc(NC(=O)N3CCN(c4ccccn4)CC3)cc21 , please?
A) 102

Q) O=C(CSc1nnc(-c2c[nH]c3ccccc23)o1)N(Cc1ccccc1)c1ccc(F)cc1 , same question.
A) 100

Q) What about CC1(C)Cc2c(c(-c3ccccc3)nc(N3CCCC3)c2C(N)=O)CO1 ?
A) 106

Q) Consider next the compound COc1ccc(Cl)c(NCCC(=O)O)c1 in the same way.
A) 88

Q) Moving on to the next compound: CCOC(=O)CSc1nc2c(c(-c3ccc(C)o3)c1C#N)CCCC2
A) 89.5

Q) Another compound to look at: O=C1CCCC2=C1C1(CCCC1)N=C(Nc1nc3ccccc3s1)N2
A) 99.5

Q) Could you do the same for CCC(c1nnnn1Cc1ccco1)N(CCc1ccccc1)Cc1cc2cccc(C)c2[nH]c1=O (stereo unspecified) , please?
A) 105

Q) Again, but for O=C(COC(=O)CCc1c[nH]c2ccccc12)NC1CCS(=O)(=O)C1 (stereo unspecified)
A) 87.5

Q) Try the compound Cc1ccc(C)c(S(=O)(=O)NCc2ccc(C(=O)N3CCN(C)CC3)cc2)c1
A) 99.5

Q) Consider next the compound Cc1ccccc1-n1c(=O)cc(NCc2ccc3c(c2)OCO3)[nH]c1=O in the same way.
A) 94.5

Q) Okay, and COc1cc(C)c(-c2cc(C(=O)O)c(C)o2)cc1C(C)C ?
A) 99.5

Q) Consider next the compound CCC(C)(C)NC(=O)C(c1ccco1)N(C(=O)Cn1nnc2ccccc21)c1ccc2c(c1)OCO2 (stereo unspecified) in the same way.
A) 92.5

Q) Can you check CCn1ncc(C2=NOC(C(=O)NCc3ccccc3)C2)c1C (stereo unspecified) next?
A) 91

Q) Would you mind doing Cc1ccc(-n2ncc3c(Nc4c(C)n(C)n(-c5ccccc5)c4=O)ncnc32)c(C)c1 as well?
A) 99

Q) Cool, now c1cn2cc(CSC3CCCCC3)nc2s1
A) 84

Q) Next entry: COC(=O)c1ccccc1S(=O)(=O)N(CCCN1CCOCC1)Cc1cccs1
A) 111

Q) Check O=C(CSc1nnc(-c2cccnc2)o1)OC1CCCCC1 too.
A) 110

Q) Now the same for O=C(O)CN1C(=O)CNC1=O
A) 98

Q) What would you report for CNC(=O)Nc1cccc(C(F)(F)F)c1 ?
A) 105

Q) Ok, now CCOC(=O)CSc1nnc(-c2cccnc2)n1Cc1ccccc1
A) 91.5

Q) Please give the result for COc1ccccc1OCCn1c(=O)sc2ccccc21 too.
A) 95

Q) Same lookup for CCN(C#N)c1nc(NC(C)C)nc(NC(C)C)n1 , please.
A) 96.5

Q) Lookup CCc1nc(N)c(C#N)c(-c2ccncc2)c1C
A) 102

Q) Consider next the compound CC(CCc1ccccc1)NCc1ccncc1 (stereo unspecified) in the same way.
A) 102

Q) And the next one, O=c1[nH]c2cccnc2n1Cc1ccco1 ?
A) 90

Q) For Cc1ccc(NCc2nnc(SCC(=O)N3CCCCC3)n2CC2CCCO2)c(C)c1 (stereo unspecified) then?
A) 94.5

Q) Check C=CCn1cnc2c(NCc3ccccc3)ncnc21 too.
A) 85.5

Q) And what about the compound CCN(CC)C(=O)CSc1nnc([C@@H](N)Cc2ccccc2)o1 ?
A) 82

Q) Similarly, CCOC(=O)Nc1ccc2c(c1)N(C(=O)CN(CC)CC)c1ccccc1C=C2 ?
A) 87.5

Q) What do you have for O=C(NCc1cccs1)C1CCCN(c2ncccn2)C1 (stereo unspecified) ?
A) 104

Q) Same lookup for CCOC(=O)c1ccccc1NC(=O)CSc1nnc(COc2ccccc2C)n1C , please.
A) 63

Q) Now the same for CCOc1ccc2ccccc2c1C(=O)N1CCN(c2ccccc2)CC1
A) 95

Q) Would you mind doing CC(C)Cn1c(CN2CCCCC2C)nc2c1c(=O)n(C)c(=O)n2C (stereo unspecified) as well?
A) 88.5

Q) Then this compound: Cc1ccccc1NC(=O)N1C2CCCC1CC(NC(=O)C1CC1)C2 (stereo unspecified)
A) 104

Q) Cc1ccc(C(c2nnnn2CCC(C)C)N2CCN(C)CC2)cc1 (stereo unspecified) , same question.
A) 90.5

Q) What do you get for CNC(=O)c1ccc(N(Cc2ccccc2C)S(C)(=O)=O)cc1 ?
A) 98

Q) Entry Cn1c(=O)c2c3c(sc2n2c(SCc4ccccc4)nnc12)CCCC3 please
A) 77

Q) And then CCOc1ccc(NC(=O)CN(C)S(=O)(=O)c2cccs2)cc1 , what is it?
A) 104

Q) And then COc1ccc(OC)c(N(CC(=O)N2CCN(c3cc(Cl)ccc3C)CC2)S(C)(=O)=O)c1 , what is it?
A) 100

Q) Can you check COC(=O)c1c(NC(=O)c2ccc(S(=O)(=O)N3CCOCC3)cc2)sc2c1CCN(C)C2 next?
A) 96

Q) What would you report for COc1cc(C)c(N)cc1C(C)C ?
A) 103

---

assay_procedure: HUVEC growth inhibition – cell-based, human, primary screen (AID 575);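 also: 100% = median of untreated cell wells with 0.1% DMSO on each plate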
condition_summary: HUVEC proliferation, CellTiter-Glo luminescence, 72 h; at 10 µM; hits give low values
// assign MET if viability falls strictly below 90%, else NOT MET (ties count as NOT MET)

Q) Say whether its viability is strictly beneath 90%. Entry: COc1cc(S(=O)(=O)N2CCOCC2)ccc1NC(=O)COC(=O)c1ccccn1
A) MET

Q) // query: CCS(=O)(=O)N1CCCC(C(=O)NCc2ccccc2Cl)C1 (stereo not drawn)
A) NOT MET

Q) Now the molecule COC(=O)C(NC(C)=O)(Nc1nc2ccc(S(C)(=O)=O)cc2s1)C(F)(F)F (stereo not drawn)
A) NOT MET

Q) What do we get for CC(=O)C1=C(O)C(=O)N(Cc2ccco2)C1c1ccc(F)cc1 (stereo not drawn) ?
A) NOT MET

Q) Consider next the molecule CN(Cc1ccccc1)Cc1nc2c(c(=O)n(C)c(=O)n2C)n1Cc1ccc(Cl)cc1 in the same way.
A) MET

Q) And CCOC(=O)c1[nH]c(C)c(C(=O)NCC2CCCO2)c1C (stereo not drawn) ?
A) NOT MET

Q) Repeat with COc1cc2c(=O)n(Cc3ccccc3)c(=O)n(CC(=O)NCc3ccco3)c2cc1OC
A) NOT MET

Q) How about this molecule: CCn1c(SCC(=O)c2ccc3c(c2)OCCO3)nnc1-c1ccco1
A) NOT MET

Q) // repeat for O=C1CCn2nc(-c3ccc(Cl)cc3)cc2N1 and report
A) MET

Q) Now the molecule CC1Cc2ccccc2N1C(=O)CSc1nnc2n1C(C)(C)Cc1ccccc1-2 (stereo not drawn)
A) MET

Q) Cool, now CC(C)Cn1c(N)c(C(=O)COC(=O)c2cc(-c3ccco3)nc3ccccc23)c(=O)n(C)c1=O
A) MET

Q) Repeat for the following molecule: O=S1(=O)CCC(NS(=O)(=O)/C=C/c2ccccc2)C1 (stereo not drawn)
A) NOT MET

Q) Follow-up item: Cc1occc1-c1nnc(SCC(=O)N2CCc3ccccc32)o1
A) MET

Q) Would you mind doing COc1ccc(CCNC(=O)c2ccc(N3CCCC3=O)cc2)cc1OC as well?
A) NOT MET

Q) Next molecule: Nc1c(Sc2ccccc2)c(=O)[nH]c(=O)n1Cc1ccccc1
A) NOT MET

Q) Similarly, COCCn1nnnc1C(c1ccc(OC)cc1)N1CCN(c2ccccc2F)CC1 (stereo not drawn) ?
A) NOT MET

Q) Please do the same for O=C1NC(c2ccccc2)(C(F)(F)F)SC2=CCCCCN12 (stereo not drawn) as well.
A) MET

Q) Another: Cc1cccn2cc(-c3ccccc3)nc12
A) MET

Q) Another molecule to look at: O=c1c2nnn(Cc3ccccc3)c2ncn1-c1ccccc1
A) NOT MET

Q) Try the molecule CCc1nnc(NC(=O)c2ccc(COc3ccc(C)cc3)o2)s1
A) NOT MET

Q) What do you get for CCOC(=O)CC(=O)Nc1c(C)cc(C)cc1C ?
A) MET
